- EXPERIMENTAL SYSTEM: T1, His6-tagged p160(20-160) (UniProt Q7TPV4 20-160)
- T1 construct: also called His6-p160(20-160); p160(20-160) domain
- T1 sequence (looked up): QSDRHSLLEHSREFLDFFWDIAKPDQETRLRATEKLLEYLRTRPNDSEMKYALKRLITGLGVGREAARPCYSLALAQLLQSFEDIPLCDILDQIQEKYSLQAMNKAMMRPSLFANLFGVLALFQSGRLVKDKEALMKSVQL
- ASSAY EXPLANATION: ELISA; ELISA-like direct binding: 96-well plate coated with p160(20-160) (0.1 uM); biotinylated peptides at several concentrations added in triplicate; detection with streptavidin-HRP; one-site binding fit (GraphPad Prism)
- MEASUREMENT CONDITIONS: both partners purified
Ends that are not written are not given here. * marks the point of attachment. Biotin = O=C1N[C@H]2[C@H](CS[C@H]2CCCCC(=O)*)N1
Record form. Attribute: pKd. Fill in for each entry.
Field pKd (float): negative decimal logarithm of the concentration in molar.

**Query** Recall and state the measured pKd for Biotin-RHPLFPLLALLFEK (Prep1 (Pbx regulating protein 1), stretch of the HR1 domain, named residues 59-72; source: synthetic peptide (Fmoc solid phase, RP-HPLC purified), biotin labelled) [N-terminally biotinylated Prep1(59-72) peptide] .
**Result** 5.90

**Query** Supply pKd value. Item: Biotin-KQAIYRHPLFPLLALLFEK (Prep1 (Pbx regulating protein 1), stretch of the HR1 domain, named residues 54-72; source: synthetic peptide (Fmoc solid phase, RP-HPLC purified), biotin labelled) [N-terminally biotinylated Prep1(54-72) peptide]
**Result** 6.74

Origin of the recorded values: paper PMC5641094
